Just for reference, patent US20260285850A1 is where these values come from.

Here, each record is paired with measured Barnyardgrass plant response rating (0 to 100 scale) data.
System: barnyardgrass (Echinochloa crus-galli)
Assay: Test A postemergence application, visual injury rating 0-100
Assay type: in vivo
Conditions: Postemergence, 16 g ai/ha, greenhouse 10 days; 0 no effect, 100 complete control
// no unit, no text: just the number

Sample answers from the record:
>  <compound>
COC(=O)C1C=CC(NC(=O)C2(C)CN(c3cc(F)cc(F)c3)C(=O)O2)C1 (stereo not shown) [Compound 89]

>  <system>
barnyardgrass (Echinochloa crus-galli)

>  <measured>
90

$$$$
>  <compound>
CCOC(=O)C1=CCC(NC(=O)C2(C)CN(c3cc(F)cc(F)c3)C(=O)O2)C1 (stereo not shown) [Compound 111]

>  <system>
barnyardgrass (Echinochloa crus-galli)

>  <measured>
0

$$$$
>  <compound>
C=CC1(C(=O)NC2CC(C(=O)OC)C2)CN(c2cc(F)cc(F)c2)C(=O)O1 (stereo not shown) [Compound 174]

>  <system>
barnyardgrass (Echinochloa crus-galli)

>  <measured>
10

$$$$
>  <compound>
C=CC1(C(=O)NC2C=CC(C(=O)O)C2)CN(c2cc(F)cc(F)c2)C(=O)O1 (mixture of isomers) [Compound 166]

>  <system>
barnyardgrass (Echinochloa crus-galli)

>  <measured>
90

$$$$

QUERY: Param item = COC(=O)C1C=CC(NC(=O)C2(C)CN(c3cc(F)cc(F)c3)C(=O)O2)C1 (stereo not shown) [Compound 92] ; retrieve measured Barnyardgrass plant response rating (0 to 100 scale).
RESULT: 0

QUERY: Param item = CC1(C(=O)NC2CC=C(C(=O)O)C2)CN(c2cc(F)cc(Cl)c2)C(=O)O1 (stereo not shown) [Compound 159] ; retrieve measured Barnyardgrass plant response rating (0 to 100 scale).
RESULT: 100

QUERY: Param item = CC(C)COC(=O)C1=CCC(NC(=O)C2(C)CN(c3cc(F)cc(F)c3)C(=O)O2)C1 (stereo not shown) [Compound 97] ; retrieve measured Barnyardgrass plant response rating (0 to 100 scale).
RESULT: 0

QUERY: Param item = CC(C)COC(=O)C1=CCC(NC(=O)C2(C)CN(c3cc(F)cc(Cl)c3)C(=O)O2)C1 (stereo not shown) [Compound 143] ; retrieve measured Barnyardgrass plant response rating (0 to 100 scale).
RESULT: 0

QUERY: Param item = CC1(C(=O)NC2CC=C(C(=O)NS(C)(=O)=O)C2)CN(c2cc(F)cc(F)c2)C(=O)O1 (racemic) [Compound 103] ; retrieve measured Barnyardgrass plant response rating (0 to 100 scale).
RESULT: 50

QUERY: Param item = C=CC1(C(=O)NC2CC(C(=O)OC)C2)CN(c2cc(F)cc(F)c2)C(=O)O1 (stereo not shown) [Compound 172] ; retrieve measured Barnyardgrass plant response rating (0 to 100 scale).
RESULT: 80

QUERY: Param item = COC(=O)C1CC(NC(=O)C2(C)CN(c3cc(F)cc(F)c3)C(=O)O2)C1 (stereo not shown) [Compound 130] ; retrieve measured Barnyardgrass plant response rating (0 to 100 scale).
RESULT: 70

QUERY: Param item = C=CC1(C(=O)NC2COC(C(=O)OC)C2)CN(c2cc(F)cc(F)c2)C(=O)O1 (stereo not shown) [Compound 170] ; retrieve measured Barnyardgrass plant response rating (0 to 100 scale).
RESULT: 0

QUERY: Param item = Cc1cc(C)cc(N2CC(C)(C(=O)NC3C=CC(C(=O)O)C3)OC2=O)c1 (stereo not shown) [Compound 126] ; retrieve measured Barnyardgrass plant response rating (0 to 100 scale).
RESULT: 50
